molecular target: human TYK2 (JH2domain-pseudokinase) (Homo sapiens (Human), UniProt P29597); test: TYK2 JH2 Domain Binding Assay (KINOMEscan); conditions: Table 5, Tyk2 JH2 Domain Binding Assay; read-out: JH2 Kd
Sequence (P29597 556-888): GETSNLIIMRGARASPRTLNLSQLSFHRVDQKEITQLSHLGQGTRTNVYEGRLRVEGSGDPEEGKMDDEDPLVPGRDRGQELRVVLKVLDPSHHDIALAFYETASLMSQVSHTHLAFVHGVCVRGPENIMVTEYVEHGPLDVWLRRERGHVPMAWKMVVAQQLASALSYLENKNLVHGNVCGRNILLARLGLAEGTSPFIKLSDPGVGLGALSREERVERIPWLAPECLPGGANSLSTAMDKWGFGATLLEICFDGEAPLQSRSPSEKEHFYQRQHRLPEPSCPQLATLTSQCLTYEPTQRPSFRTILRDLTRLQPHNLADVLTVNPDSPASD
Measured Kd, listed per entry for reference.

// known answers, use as guide
CNc1nn(-c2cccc(-c3ncn(C)n3)c2OC)c2cc(NC(=O)C3CC3)ncc12: 0.01 to 0.1 µM
CNc1nn(-c2cccc(-c3nnn(C)n3)c2OC)c2cc(NC(=O)C3CC3)ncc12: > 0.1 µM
CCc1nn(-c2cccc(-c3nnn(C)n3)c2OC)c2cc(NC(=O)C3CC3)ncc12: 0.0001 to 0.001 µM
COc1c(Nc2cc(NC(=O)C3CC3)ncc2-c2nnc(C)s2)cccc1-c1ncn(C)n1: 0.001 to 0.01 µM

Next:
So for CCn1cc(-c2cccc(-c3nnn(C)n3)c2OC)c2cc(NC(=O)C3CC3)ncc21 , the logged Kd turned out to be 0.01 to 0.1 µM

---

biological target: human TYK2 (JH2domain-pseudokinase) (Homo sapiens (Human), UniProt P29597); assay: TYK2 JH2 Domain Binding Assay (KINOMEscan); settings: Table 4, JH2 binding assay; read-out: JH2 Kd
Kd by entry:

COc1c(Nc2cc(NC(=O)C3CC3)nc3[nH]n(C)c(=O)c23)cccc1C(N)=O [Compound I-102]: > 10 nM
COc1c(F)cccc1Nc1cc(Nc2cnc(C(C)(C)OC)c(C#N)n2)nc2[nH]n(C)c(=O)c12 [Compound I-190]: 0.5 to 1 nM
COc1c(Nc2cc(NC(=O)C3CC3)nc3[nH]n(C)c(=O)c23)cccc1-c1ncnn1C [Compound I-54]: 0.5 to 1 nM

Consider COc1c(Nc2cc(Nc3cc(C)c(F)cn3)nc3[nH]n(C)c(=O)c23)cccc1-c1ccn(C)n1 [Compound I-120] . Its measured Kd is 1 to 10 nM

Sure, the documented Kd for COc1c(F)cccc1Nc1cc(Nc2ccc(C3CC3)cn2)nc2[nH]n(C)c(=O)c12 [Compound I-91] is 1 to 10 nM

Kd in this record for COc1c(Nc2cc(Nc3ccc(N4CCOCC4)cn3)nc3[nH]n(C)c(=O)c23)cccc1-c1nnn(C)n1 [Compound I-7] : 1 to 10 nM

In plain terms, COc1cc(C(=O)N2CCCC2)ccc1Nc1cc(NC(=O)C2CC2)nc2[nH]n(C)c(=O)c12 [Compound I-70] has a documented Kd of 0.1 to 0.5 nM

---

test system: GM-CSF induced pSTAT5; assay: GM-CSF Induced pSTAT5 in Human PBMC; type: cell-based; conditions: 5 ng/mL GM-CSF, read-out: IC50 of inhibition of pSTAT5 production
VALUE_TYPE: IC50

The compound identified as COc1c(Nc2cc(NC(=O)C3CC3)ncc2-c2ncc(Cl)s2)cccc1-c1nnn(C)n1 [VIII-1] registered its IC50 at > 50 µM

---

biological target: human TYK2 (JH2domain-pseudokinase) (Homo sapiens (Human)); experiment: TYK2 JH2 Domain Binding Assay (KINOMEscan); conditions: Table 4, JH2 binding assay; read-out: JH2 Kd
pKd: −log10 of the molar value.
VALUE_TYPE: pKd

Cn1[nH]c2nc(Nc3cncc(C#N)n3)cc(Nc3ccc(C4CC4)cc3S(C)(=O)=O)c2c1=O: < 8.00

Query COc1c(Nc2cc(Nc3cc(C)c(F)cn3)nc3[nH]n(C)c(=O)c23)cccc1-c1nnn(C)n1 yields pKd of > 10.00

The molecule listed as COc1c(Cl)cccc1Nc1cc(Nc2cncc(C#N)n2)nc2[nH]n(C)c(=O)c12 has a reported pKd of < 8.00

---

target: human TYK2 (JH2domain-pseudokinase) (Homo sapiens (Human), UniProt P29597); assay: TYK2 JH2 Domain Binding Assay (KINOMEscan); details: Table 4, JH2 binding assay; read-out: JH2 Kd
pKd: −log10 of the molar value.
Listing of recorded pKd by entry.

Solved entries:
COc1c(Nc2cc(Nc3ccc(C)cn3)nc3[nH]n(C)c(=O)c23)cccc1-c1nnn(C)n1 [Compound I-3]: 9.30 to 10.00
COc1c(Nc2cc(Nc3cc(C#N)ncn3)nc3[nH]n(C)c(=O)c23)cccc1-c1nnn(C)n1 [Compound I-29]: 9.30 to 10.00
COCc1ccc(Nc2cc(Nc3ccc(C(=O)N4CCCC4)c(C(F)(F)F)n3)nc3[nH]n(C)c(=O)c23)c(OC)c1 [Compound I-92]: 9.30 to 10.00
COc1c(Nc2cc(NC(=O)C3CC3)nc3[nH]n(C)c(=O)c23)cccc1-c1n[nH]c(C)n1 [Compound I-62]: > 10.00
Cn1[nH]c2nc(NC(=O)[C@@H]3C[C@@H]3F)cc(Nc3ccc(C4CC4)cc3S(C)(=O)=O)c2c1=O [Compound I-210]: 9.30 to 10.00
COc1c(Nc2cc(Nc3ccc(N4CCCCC4)cn3)nc3[nH]n(C)c(=O)c23)cccc1-c1ccn(C)n1 [Compound I-124]: 8.00 to 9.00
COCc1ccc(Nc2cc(NC(=O)C3CC3)nc3[nH]n(C)c(=O)c23)c(N(C)S(C)(=O)=O)c1 [Compound I-218]: > 10.00
COc1c(Nc2cc(Nc3cc(C)ccn3)nc3[nH]n(C)c(=O)c23)cccc1-c1nnn(C)n1 [Compound I-5]: < 8.00
COc1c(Nc2cc(Nc3cncc(C#N)n3)nc3[nH]n(C)c(=O)c23)cccc1-c1nnn(C)n1 [Compound I-64]: > 10.00
COc1c(F)cccc1Nc1cc(Nc2cc(C)nc(C)n2)nc2[nH]n(C)c(=O)c12 [Compound I-74]: 9.30 to 10.00

Notebook: COC1CN(c2ccc(Nc3cc(NC(=O)C4CC4)nc4[nH]n(C)c(=O)c34)c(N(C)S(C)(=O)=O)c2)C1 [Compound I-220] , pKd read as 9.30 to 10.00

The reported pKd of the compound COCc1ccnc(Nc2cc(Nc3ccccc3S(C)(=O)=O)c3c(=O)n(C)[nH]c3n2)c1 [Compound I-110] was 8.00 to 9.00

For record CN(c1ccccc1Nc1cc(NC(=O)C2CC2)nc2[nH]n(C)c(=O)c12)S(C)(=O)=O [Compound I-129] the listed pKd is 9.30 to 10.00

---

biological target: human TYK2 (JH2domain-pseudokinase) (Homo sapiens (Human)); assay: TYK2 JH2 Domain Binding Assay (KINOMEscan); conditions: Table 4, JH2 binding assay; read-out: JH2 Kd
Kd values, listed per item

For orientation, consider the following solved cases.
COc1c(Nc2cc(NC(=O)C3CC3)nc3[nH]n(C)c(=O)c23)cccc1-n1nc(C)c(C)n1: > 10 nM
COCc1ccnc(Nc2cc(Nc3cccc(C#N)c3OC)c3c(=O)n(C)[nH]c3n2)c1: > 10 nM
Cc1cc(Nc2cc(Nc3ccc(Cl)cc3S(C)(=O)=O)c3c(=O)n(C)[nH]c3n2)nc(C)n1: 0.1 to 0.5 nM
COc1c(Nc2cc(Nc3cc(C)nc(C)n3)nc3[nH]n(C)c(=O)c23)cccc1C(N)=O: > 10 nM
COc1c(Nc2cc(Nc3cc(C)ccn3)nc3[nH]n(C)c(=O)c23)cccc1-c1nccs1: > 10 nM
COc1c(Cl)cccc1Nc1cc(Nc2cccc(C#N)n2)nc2[nH]n(C)c(=O)c12: 0.5 to 1 nM
COCc1ccnc(Nc2cc(Nc3cccc(-c4nnn(C)n4)c3OC)c3c(=O)n(C)[nH]c3n2)c1: 0.1 to 0.5 nM
Cn1[nH]c2nc(NC(=O)C3CC3)cc(Nc3ccccc3P(C)(C)=O)c2c1=O: > 10 nM
COc1c(Nc2cc(Nc3ccc(C#N)cn3)nc3[nH]n(C)c(=O)c23)cccc1-c1nnn(C)n1: < 0.1 nM
COCc1ccnc(Nc2cc(Nc3cccc(-c4ncn(C)n4)c3OC)c3c(=O)n(C)[nH]c3n2)c1: 0.1 to 0.5 nM

The reported value for COc1c(Nc2cc(Nc3cccc(C4CC4)n3)nc3[nH]n(C)c(=O)c23)cccc1-c1nnn(C)n1 in terms of Kd is 0.1 to 0.5 nM

# Kd (molecule: COc1c(F)cccc1Nc1cc(Nc2cc(C)ccn2)nc2[nH]n(C)c(=O)c12 ) is 1 to 10 nM

What the record says about CN(c1cc(C2CCCOC2)ccc1Nc1cc(NC(=O)C2CC2)nc2[nH]n(C)c(=O)c12)S(C)(=O)=O (stereo not drawn) : Kd is 0.1 to 0.5 nM

The molecule COCc1ccc(Nc2cc(NC(=O)C3CC3)nc3[nH]n(C)c(=O)c23)c(OC)c1 showed Kd equal to 1 to 10 nM

Kindly note the recorded Kd for COc1c(F)cccc1Nc1cc(Nc2ccc(N3CCCCC3)cn2)nc2[nH]n(C)c(=O)c12 , which is 1 to 10 nM

---

target: human TYK2 (JH2domain-pseudokinase) (Homo sapiens (Human), UniProt P29597); assay: TYK2 JH2 Domain Binding Assay (KINOMEscan); details: Table 4, JH2 binding assay; read-out: JH2 Kd
pKd: −log10 of the molar value.
The following compounds are listed with their measured pKd values.

Please review the entries below; each comes with its answer.
COc1cc(C2CCC2)ccc1Nc1cc(NC(=O)C2CC2)nc2[nH]n(C)c(=O)c12: < 8.00
COc1ccccc1Nc1cc(NC(=O)C2CC2)nc2[nH]n(C)c(=O)c12: 8.00 to 9.00
Cn1[nH]c2nc(Nc3cccc(C#N)n3)cc(Nc3ccc(Cl)cc3S(C)(=O)=O)c2c1=O: 9.00 to 9.30
COCc1ccnc(Nc2cc(Nc3cccc(Cl)c3OC)c3c(=O)n(C)[nH]c3n2)c1: 9.00 to 9.30
COc1c(Nc2cc(Nc3cccc(C#N)n3)nc3[nH]n(C)c(=O)c23)cccc1-c1ncn(C)n1: < 8.00

So, COc1cc(C(=O)N2CCC2)ccc1Nc1cc(NC(=O)C2CC2)nc2[nH]n(C)c(=O)c12 ? Its pKd was 9.30 to 10.00

compound Cn1[nH]c2nc(NC(=O)[C@@H]3CC3(F)F)cc(Nc3ccc(C4CC4)cc3S(C)(=O)=O)c2c1=O , pKd observed: 8.00 to 9.00

compound COc1c(Nc2cc(Nc3cc(C#N)ccn3)nc3[nH]n(C)c(=O)c23)cccc1-c1nnn(C)n1 , pKd observed: < 8.00
